In this section, each of the molecules is paired with its reported Ki.
- measurement_target: UniProt Q95136
- Sequence (Q95136 whole entry): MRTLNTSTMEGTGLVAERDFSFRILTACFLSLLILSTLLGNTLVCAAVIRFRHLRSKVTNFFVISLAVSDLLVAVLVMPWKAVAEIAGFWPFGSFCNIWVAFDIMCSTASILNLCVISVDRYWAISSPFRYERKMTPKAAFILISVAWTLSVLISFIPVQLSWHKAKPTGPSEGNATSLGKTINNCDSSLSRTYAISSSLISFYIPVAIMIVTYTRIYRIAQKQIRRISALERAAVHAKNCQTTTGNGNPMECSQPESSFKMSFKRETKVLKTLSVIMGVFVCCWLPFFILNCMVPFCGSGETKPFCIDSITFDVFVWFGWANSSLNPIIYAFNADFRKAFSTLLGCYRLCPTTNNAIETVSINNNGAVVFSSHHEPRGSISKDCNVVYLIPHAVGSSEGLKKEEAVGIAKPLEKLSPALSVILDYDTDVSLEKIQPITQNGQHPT
- experiment_notes: Binding affinity of compound for Dopamine receptor D1 using [3H]-SCH- 23390

# molecule, measurement_target, unit_string, Ki
records = [
    ("CCCN(CCc1cccs1)[C@H]1CCc2c(ccc(O)c2O)C1 (racemic)", "UniProt Q95136", "nM", 110),
    ("CCCN(CCC)[C@@H]1Cc2cccc(O)c2C[C@H]1C", "UniProt Q95136", "nM", 1.1),
    ("CCCN(CCc1cccs1)[C@H]1CCc2c(O)cccc2C1 (racemic)", "UniProt Q95136", "nM", 500),
]
